All values here come from PubChem BioAssay (NCI).

# Test system: COLO 205 colon
# test: NCI-60 one-dose screen, 48 h (100 = growth as untreated, 0 = no growth, -100 = all killed)
# test_settings: 10 µM unless noted
This is part of a sample that, as a whole, favours compounds with a hit. Of some 83,000 tested, about 20% had one in any assay.
Examples of compounds with documented growth follow.

compound	unit_tag	growth
Clc1cccc(N/N=C/c2c[nH]c3ccc(Br)cc23)n1	%	31.9
S=C(NCCc1ccccc1)Nc1ccc(OCc2nc3ccccc3[nH]2)cc1	%	109
O=C1Nc2ccc([N+](=O)[O-])cc2C1=Nc1ccccc1	%	108
CN1C(=O)/C(=C/c2ccc(C(=O)Nc3ncc(Cc4ccc(Cl)cc4Cl)s3)cc2)SC1=S	%	27.6
N#Cc1c(-c2cccc(O)c2O)cc(-c2ccc3ccccc3c2)[nH]c1=O	%	84
COc1ccc(/C=C/c2nc3ccccc3nc2Nc2cccc(C)c2)cc1	%	105
CC(=O)Nc1cccc(-c2nc3cc(-c4ccc(O)cc4)ccc3n2C)c1	%	56.5
O=c1oc2ccccc2cc1-c1csc(N2N=C(c3ccccc3)CC2c2ccc(N3CCOCC3)cc2)n1 (stereo not drawn)	%	118
N#Cc1cnn(C(=O)c2ccccc2Br)c1NC(=O)c1ccc(Br)cc1Cl	%	102
CC(=O)OC[C@@]1(C)C2CC[C@]3(C)C(CC=C4C5CC(C)(C)CC[C@]5(C(=O)Nc5ccc(C)cc5)CC[C@]43C)[C@@]2(C)C[C@@H](OC(C)=O)[C@@H]1OC(C)=O (stereo partly drawn)	%	48.8
COc1cccc(/C=C/c2nc3ccccc3c(=O)n2CC(=O)Nc2ccc(Cl)cc2)c1	%	86.4
COc1cc(C2CC(c3cc(OC)c(OC)c(OC)c3)=Nc3c(N)nc(N)nc3N2)ccc1Oc1nc(NCCO)nc(N2CCOCC2)n1 (stereo not drawn)	%	110
C[C@H](Nc1nc(NCCc2ccccc2)nc2ccccc12)c1ccccc1	%	-93.7
COc1ccc2oc3c4[nH]c5ccccc5c4c4c(c3c2c1)C(=O)N(C(=O)OC(C)(C)C)C4=O	%	-40.9
C=C1CC[C@@H]2[C@]3(C)COC(c4cn(-c5ccccc5)nc4-c4cccc([N+](=O)[O-])c4)O[C@@H]3CC[C@@]2(C)[C@@H]1C/C=C1/C(=O)OC[C@H]1O (stereo partly drawn)	%	-64.2
Cc1ccc(C(=O)CSc2nc3ccc(F)cc3c(=O)n2-c2ccc(Cl)cc2)cc1	%	69.9
O=C(Cn1c(/C=C/c2ccccc2)nc2ccccc2c1=O)Nc1ccc(Cl)cc1	%	78.4
NS(=O)(=O)c1ccc(NNC(=O)CCC(=O)c2ccccc2)cc1	%	118

---

# System: A498 renal
# test: NCI-60 one-dose screen, 48 h
# test_settings: 10 µM unless noted
About 83,000 compounds went through this panel and 20% of them were active in at least one assay; those are over-represented in the sample as a whole. The source made the active and inactive calls. The calls were made as follows: active = growth percent below 10; inactive = the rest.
Labels: active, inactive

molecule	group_label
O=C(COc1ccc(NC(=O)Nc2ccc(Cl)c(Cl)c2)cc1)N=Nc1c(O)[nH]c2ccc(Cl)cc12	active
CC(=O)N1CCN(Cc2ccc3c(NNC(=O)c4cnccn4)nc4cc(F)ccc4n23)CC1	inactive
COc1ccc(-c2c(Nn3cnnn3)no[n+]2[O-])cc1	inactive
COc1ccc(NC(=O)[C@H](C)N)cc1C(=O)Nc1cccc(C2CC(=O)c3c(cc(OC)c(OC)c3OC)O2)c1 (some centres undefined)	inactive
C=C1CCC2C3(C)COC(c4cccc(F)c4)OC3CCC2(C)C1C/C=C1/C(=O)OCC1O (centres undefined)	inactive
CN(C)c1nc(NCCNS(=O)(=O)c2ccc(C3=Nc4c(N)nc(N)nc4NC(c4ccc(C(F)(F)F)cc4)C3)cc2)nc(Nc2ccc(F)cc2)n1 (centres undefined)	inactive
Cc1ccc(-c2nc(Nc3ccccc3S(N)(=O)=O)c3ccccc3n2)cc1	inactive
CN1CCc2c(sc3ncnc(N/N=C/c4ccc(Cl)cc4Cl)c23)C1	inactive
CCCCCCCCc1ccc(S(=O)(=O)Nc2ccc(CC)cc2C(=O)O)cc1	inactive

---

Examples of molecules with documented growth follow.
# System: MALME-3M melanoma
# test: NCI-60 one-dose screen, 48 h (100 = growth as untreated, 0 = no growth, -100 = all killed)
# test_settings: 10 µM unless noted
About 83,000 compounds went through this panel and 20% of them were active in at least one assay; those are over-represented in the sample as a whole.

molecule	unit_tag	growth
Cn1cc(-c2nc(N)nnc2-c2c[nH]c3ccc(Br)cc23)c2cccnc21	%	57
Cc1cc(C)cc(C(=O)Nc2cccc(-c3cn(-c4ccc(S(N)(=O)=O)cc4)nn3)c2)c1	%	20.4
CNC(=O)c1cccc(NC(=O)c2ccc3c(c2)nnn3/C(C#N)=C/c2ccccn2)c1	%	-97
S=C(Nc1ccc(OCc2nc3ccccc3[nH]2)cc1)NC1CCCCC1	%	67.6
O=c1cc(-c2ccccc2)oc2cc(OCCCC[P+](c3ccccc3)(c3ccccc3)c3ccccc3)cc(O)c12	%	-88
Cn1cc(NC(=O)c2cc(NC(=O)c3ccc(/C=C/c4ccccc4)cc3)cn2C)cc1C(=O)NCCCN1CCOCC1	%	-83.3
N/C(=N\c1nc2ccccc2s1)NC(=O)Nc1ccccc1Br	%	-12.5
COc1ccc(/C=C2\C(=N)N=C(SCc3nc4ccccc4[nH]3)NC2=O)cc1	%	102
Cn1cc(-c2nc(N)nnc2-c2c[nH]c3ccc(Br)cc23)c2cc(Br)cnc21	%	4.82
COC(=O)/C=C/c1cccc2c1C(=O)NC(C)(c1cc3ccccc3oc1=O)N2 (centres undefined)	%	58.7
COc1cc(/C=C/C(=O)c2nnn(-c3ccc(Cl)cc3)c2C)cc(OC)c1OC	%	49
Cc1cccc(NC(=O)[C@]23CCC(C)(C)CC2C2=CCC4[C@@]5(C)C[C@@H](O)[C@H](O)[C@@](C)(CO)C5CC[C@@]4(C)[C@]2(C)CC3)c1 (some centres undefined)	%	28.3
Cc1cccc(-c2nc(Nc3ccc(C)c(S(N)(=O)=O)c3)c3ccccc3n2)c1	%	46.6
Cc1cc2c(cc1Cl)C(=O)/C(=C/c1ccc(F)cc1)O2	%	100
COc1ccc(C(SCCNCc2cc(N(C)C)ccn2)(c2ccccc2)c2ccccc2)cc1	%	-91.4
COc1ccc(/C=C/c2nc3ccccc3n3c(-c4ccc(Cl)cc4)nnc23)cc1	%	104
O=C(NNc1nc2cc(F)ccc2n2c(C(=O)N3CCN(C4CC4)CC3)ccc12)c1ncccn1	%	33.2
CC1=C(C(=O)c2ccccc2)C(c2cccc(Cl)c2Cl)n2c(nc3ccccc32)N1 (centres undefined)	%	57.9
CCC(C)(C)c1ccc(OCCCCN2CCN(c3ccncc3)CC2)cc1	%	-85

---

# Test system: DU-145 prostate
# test: NCI-60 one-dose screen, 48 h (100 = growth as untreated, 0 = no growth, -100 = all killed)
# test_settings: 10 µM unless noted
This is part of a sample that, as a whole, favours compounds with a hit. Of some 83,000 tested, about 20% had one in any assay.
Examples of compounds with documented growth follow.

compound	growth (%)
NS(=O)(=O)c1ccc(-n2cc(-c3cccc(NC(=O)c4cc(Cl)cc(Cl)c4)c3)nn2)cc1	74.6
CC(=O)Nc1ccc(-c2nc3cc(-c4ccc(O)cc4)ccc3n2C)cc1	54.9
CCN(CC)C(=O)N/C(N)=N/c1nc2ccccc2s1	48.8
C=C1CC[C@@H]2[C@]3(C)COC(c4cn(-c5ccccc5)nc4-c4ccccc4)O[C@@H]3CC[C@@]2(C)[C@@H]1C/C=C1/C(=O)OC[C@H]1O (stereo not given in full)	8.33
COCOc1ccc2c(=O)c(C)c(C(=O)N[C@@H](Cc3ccccc3)C(O)C(=O)NCCc3ccc(OC)cc3)oc2c1 (stereo not given in full)	106
Cn1cc(-c2cc(N)n3nc(-c4c[nH]c5ccccc45)cc3n2)c2cccnc21	38.2
Nc1cccc(SCc2cc3ccccc3[nH]c2=O)c1	58.7
COc1cc(-c2ccc(/C=N/NC(=O)c3[nH]c4ccc(Br)cc4c3-c3ccccc3)s2)cc(OC)c1OC	86.4
COc1cc(OC)cc(C(=O)Nc2cccc(-c3cn(-c4ccc(S(N)(=O)=O)cc4)nn3)c2)c1	97.2
Cc1cc(N=C2NC(=O)CS2)n[nH]1	119
Cc1ccc([C@H]2C(C(=O)c3ccc(Cl)cc3)C3(N[C@@H]2c2ccccc2)C(=O)Nc2ccc(Cl)cc23)cc1 (stereo not given in full)	71.8
COc1ccc2c(c1)c(/C=N/Nc1ccc3ccccc3n1)cn2C	36.2
COc1cc2oc(-c3cccc(C(=O)Nc4ccc(Cl)cc4)c3)cc(=O)c2c(OCC(=O)N[C@@H](Cc2ccccc2)C(=O)O)c1OC	111
CCCSc1nc(Nc2ccc(S(N)(=O)=O)cc2)c(C#N)c(-c2ccc(Cl)cc2)n1	58.7
O=C(Cn1c2c(sc1=O)[C@H]1[C@@H](O)[C@@H](O)[C@H](O)[C@@H]1CS2)N1CCOCC1	112
COc1ccc(NC(=O)Cn2c(/C=C/c3cccc([N+](=O)[O-])c3)nc3ccccc3c2=O)cc1	93.9
O=C(Nc1cccc(-n2cnc3cc(-c4ccc(O)cc4)ccc32)c1)C1CC1	28.5
O=C1NC(=O)c2c1c1c3cc(Br)ccc3[nH]c1c1oc3ccc(F)cc3c21	-31.5
O=C(O)c1cccc(-c2ccc(/C=N/NC(=O)c3[nH]c4ccc(Br)cc4c3-c3ccccc3)o2)c1	98.7
C=C1CC[C@@H]2[C@]3(C)COC(c4cn[nH]c4-c4cccc(Br)c4)O[C@@H]3CC[C@@]2(C)[C@@H]1C/C=C1/C(=O)OCC1O (stereo not given in full)	-85.5
CC1(C)CC[C@]2(C(=O)O)CC[C@]3(C)C(=CCC4[C@@]5(C)C[C@@H](O)[C@@H]6OC(c7ccco7)OC[C@@]6(C)C5CC[C@]43C)C2C1 (stereo not given in full)	29.1
CCN1C(=O)N(CC)C2NNC(Sc3c(C(=O)O)c4ccccc4n(C4CCCC4)c3=O)=NC21 (stereo not given)	2.94
CN(C)c1ccnc(CNCCSC2(c3ccc(C(F)(F)F)cc3)c3ccccc3CCc3ccccc32)c1	-3.51
Cc1cc2c(cc1Cl)C(=O)/C(=C/c1ccccc1)O2	-94.3
Nc1n[nH]c2cccc(C#Cc3cccc(NC(=O)c4cccc(Cl)c4)c3)c12	55.8
C=C1CCC2C3(C)COC(c4cccs4)OC3CCC2(C)C1CC(Sc1ccccc1)C1=CCOC1=O (stereo not given)	94.4
CN(C)c1ccnc(NCCCSC(c2ccccc2)(c2ccccc2)c2ccccc2)c1	46.2
O=C(c1ccc(OCCN2CCOCC2)cc1)C1[C@H](c2ccc(Cl)cc2)[C@@H](c2ccccc2)NC12C(=O)Nc1ccc(Br)cc12 (stereo not given in full)	41.6
COc1ccc(NC(=O)c2sc3nc(C(C)C)ccc3c2N)cc1	78.9
Cc1ccc([C@H]2C(C(=O)c3ccc(Cl)cc3)C3(N[C@@H]2c2ccccc2)C(=O)Nc2ccc(Br)cc23)cc1 (stereo not given in full)	82.5
Cc1ccc(C(=O)CSc2nc3ccc(F)cc3c(=O)n2-c2ccc(Cl)cc2)cc1	50.4
COc1cccc(/C=C/C(=O)c2ccc(OC)c(S(N)(=O)=O)c2)c1	31.8
CC(=O)OC[C@@]1(C)C2CC[C@]3(C)C(CC=C4C5CC(C)(C)CC[C@]5(C(=O)Nc5ccc(Br)cc5)CC[C@]43C)[C@@]2(C)C[C@@H](OC(C)=O)[C@@H]1OC(C)=O (stereo not given in full)	49
Cn1cc(-c2nnc(N)nc2-c2c[nH]c3ccccc23)c2cccnc21	76.9
CCC(C)(C)c1ccc(OCCCCN2CCN(c3ccncc3)CC2)cc1	60.8
